# credit: patent US20250144067A1

Kindly state Difference for each of the entries shown.
System: NCI-H292 lung cancer cells
Experiment: FDA drug screening, complete media vs cholesterol-free media without statin (TABLE 1)
Type: cell-based, human
Conditions: Complete minus Cholesterol-free; greater than 0 enhanced anti-cancer activity, about 0 neutral, below 0 antagonists
Where a name gives a salt, the structure may show the parent alone.
One number for each entry.

[[record]]
compound = "Cc1cc(C#N)cc(C)c1Oc1nc(Nc2ccc(C#N)cc2)nc(N)c1Br [Etravirine]"
property_name = "Difference"
measured_number = "−0.49"


Hey, can you go through the list below and give me Difference for every item?
1. COC(=O)N[C@H](C(=O)N1CCC[C@H]1c1nc(-c2ccc3c(c2)O[C@@H](c2ccccc2)n2c-3cc3cc(-c4c[nH]c([C@@H]5CCCN5C(=O)[C@@H](NC(=O)OC)C(C)C)n4)ccc32)c[nH]1)C(C)C [Elbasvir]
2. CC(C)(C)NCC(O)c1ccccc1Cl (stereo not shown) [Tulobuterol (hydrochloride)]
3. CC(C)OC(=O)OCOP(=O)(CO[C@H](C)Cn1cnc2c(N)ncnc21)OCOC(=O)OC(C)C [Tenofovir (Disoproxil)]
4. CN1C(C(=O)Nc2ccccn2)=C(O)c2ccccc2S1(=O)=O [Piroxicam]
5. CC1=C(CC(=O)O)c2cc(F)ccc2/C1=C\c1ccc([S+](C)[O-])cc1 (stereo not shown) [Sulindac]

["−0.70", "−0.62", "−0.65", "−0.71", "−0.48"]

Param item = C[C@H]1O[C@@H](n2cc(F)c(=O)[nH]c2=O)[C@H](O)[C@@H]1O [Doxifluridine] ; retrieve measured Difference.
−0.49

----------
System: NCI-H292 lung cancer cells
Test: FDA drug screening, complete media vs cholesterol-free media without statin (TABLE 1)
Format: cell-based, human
Conditions: NCI-H292 cells, cholesterol-free media without statin, FDA drug library screen
Where a name gives a salt, the structure may show the parent alone.
Property name: Cholesterol-free
Answers are plain numbers.

See these solved cases before continuing.
[[record]]
compound = "C#Cc1cccc(Nc2ncnc3cc4c(cc23)OCCOCCOCCO4)c1 [Icotinib]"
assayed_target = "NCI-H292 lung cancer cells"
measured_number = 0.4295

[[record]]
compound = "O=C1OC(OC(=O)c2cccnc2Nc2cccc(C(F)(F)F)c2)c2ccccc21 (centres unmarked) [Talniflumate]"
assayed_target = "NCI-H292 lung cancer cells"
measured_number = 0.679

[[record]]
compound = "COC(=O)Nc1nc2ccc(C(=O)c3ccccc3)cc2[nH]1 [Mebendazole]"
assayed_target = "NCI-H292 lung cancer cells"
measured_number = 0.1458

[[record]]
compound = "CC(C(=O)O)c1ccc2c(c1)Cc1cccnc1O2 (centres unmarked) [Pranoprofen]"
assayed_target = "NCI-H292 lung cancer cells"
measured_number = 0.6134

[[record]]
compound = "Nc1ccn([C@@H]2O[C@H](CO)[C@@H](O)[C@@H]2O)c(=O)n1 [Cytarabine]"
assayed_target = "NCI-H292 lung cancer cells"
measured_number = 0.08949

[[record]]
compound = "Cc1cccc([C@H](C)c2cnc[nH]2)c1C [Dexmedetomidine (hydrochloride)]"
assayed_target = "NCI-H292 lung cancer cells"
measured_number = 0.9551

[[record]]
compound = "CC1(C)O[C@@H]2C[C@H]3[C@@H]4C[C@H](F)C5=CC(=O)C=C[C@]5(C)[C@H]4[C@@H](O)C[C@]3(C)[C@]2(C(=O)CO)O1 [Flunisolide]"
assayed_target = "NCI-H292 lung cancer cells"
measured_number = 0.8546


Proceeding to the next compound to report its Cholesterol-free.
Param item = CC(C)CN(C[C@@H](OP(=O)(O)O)[C@H](Cc1ccccc1)NC(=O)O[C@H]1CCOC1)S(=O)(=O)c1ccc(N)cc1 [Fosamprenavir] ; retrieve measured Cholesterol-free.
0.7855

----------
Kindly state Difference for each of the entries shown.
Tested on: NCI-H292 lung cancer cells
Experiment: FDA drug screening, complete media vs cholesterol-free media without statin (TABLE 1)
Assay type: cell-based, human
Conditions: Complete minus Cholesterol-free; greater than 0 enhanced anti-cancer activity, about 0 neutral, below 0 antagonist
Counter-ions that a name gives are not always drawn.
Numbers only.

[[record]]
molecule = "O=C1CCc2ccc(OCCCCN3CCN(c4cccc(Cl)c4Cl)CC3)cc2N1"
measured_number = "−0.16"

[[record]]
molecule = "COc1ccccc1OCCNCC(O)COc1cccc2[nH]c3ccccc3c12 (centres unmarked)"
measured_number = "−0.18"

[[record]]
molecule = "NS(=O)(=O)c1cc2c(cc1Cl)N=C(CSCc1ccccc1)NS2(=O)=O [Benzthiazide]"
measured_number = "−0.08"

[[record]]
molecule = "COc1ccc(CN2CCN(C(c3ccc(F)cc3)c3ccc(F)cc3)CC2)c(OC)c1OC [Lomerizine dihydrochloride]"
measured_number = "−0.12"


Param item = CCOc1ccc(NC(C)=O)cc1 ; retrieve measured Difference.
−0.09

----------
System: NCI-H292 lung cancer cells
Assay: FDA drug screening, complete media vs cholesterol-free media without statin (TABLE 1)
Format: cell-based, human
Settings: NCI-H292 cells, complete media
Kindly state Complete for each of the entries shown.

See these solved cases before continuing.
[[record]]
compound = "CCN(CC)CC#CCOC(=O)C(O)(c1ccccc1)C1CCCCC1 (stereo not shown) [Oxybutynin (chloride)]"
result = 0.8317

[[record]]
compound = "CN1CCN(CC/C=C2/c3ccccc3Sc3ccc(S(=O)(=O)N(C)C)cc32)CC1 [(Z)-Thiothixene]"
result = 1.05

[[record]]
compound = "COc1ccc(CN=c2[nH]c(N3CCC[C@H]3CO)ncc2C(=O)NCc2ncccn2)cc1Cl [Avanafil]"
result = 0.6848


Proceeding to the next compound to report its Complete.
Field: Complete (NCI-H292 lung cancer cells). Entry: O=C1OC2(c3ccc(O)cc3Oc3cc(O)ccc32)c2ccccc21 [Fluorescein]
0.6958

----------
Test system: NCI-H292 lung cancer cells
Assay: FDA drug screening, complete media vs cholesterol-free media without statin (TABLE 1)
Type: cell-based, human
Conditions: Complete minus Cholesterol-free; >0 enhanced anti-cancer activity, about 0 neutral, <0 antagonist
Where a name gives a salt, the structure may show the parent alone.
Kindly state Difference for each of the entries shown.

See these solved cases before continuing.
[[record]]
compound = "CCN[C@H]1CN(CCCOC)S(=O)(=O)c2sc(S(N)(=O)=O)cc21 [Brinzolamide]"
result = 0.00

[[record]]
compound = "CC(C)(C)C(=O)Oc1ccc(S(=O)(=O)Nc2ccccc2C(=O)NCC(=O)O)cc1 [Sivelestat (sodium tetrahydrate)]"
result = "−0.30"

[[record]]
compound = "NC(=O)c1cn(Cc2c(F)cccc2F)nn1 [Rufinamide]"
result = 0.00

[[record]]
compound = "CCOC(=O)[C@H](CCc1ccccc1)N[C@H]1CS[C@H](c2cccs2)CN(CC(=O)O)C1=O [Temocapril (hydrochloride)]"
result = 0.00


Proceeding to the next compound to report its Difference.
Param item = CC(C)=CCC/C(C)=C/CC/C(C)=C/C=C/C(C)=C/C(=O)O ; retrieve measured Difference.
−0.19

----------
Kindly state Complete Media for each of the entries shown.
System: NCI-H292 lung cancer cells
Experiment: FDA drug screening, complete media vs cholesterol-free media with simvastatin (TABLE 2)
Assay type: cell-based, human
Conditions: NCI-H292 cells, FDA drug library screen, complete media
Where a name gives a salt, the structure may show the parent alone. Peptide text beside a SMILES is read from it.
Give bare numbers.

See these solved cases before continuing.
[[record]]
molecule = "CN(C)CCC=C1c2ccccc2CCc2ccccc21 [Amitriptyline (hydrochloride)]"
property_name = "Complete Media"
measured_number = 0.8184

[[record]]
molecule = "Cc1ccc(Cl)c(Nc2ccccc2C(=O)O)c1Cl [Meclofenamate (sodium)]"
property_name = "Complete Media"
measured_number = 1.718

[[record]]
molecule = "C[C@H](CCC(=O)O)[C@H]1CC[C@H]2[C@@H]3C[C@H](O)[C@@H]4C[C@H](O)CC[C@]4(C)[C@H]3CC[C@]12C"
property_name = "Complete Media"
measured_number = 0.9966

[[record]]
molecule = "N=C(N)NCCCC[C@@H]1NC(=O)CCSSC[C@@H](C(N)=O)NC(=O)[C@@H]2CCCN2C(=O)[C@H](Cc2c[nH]c3ccccc23)NC(=O)[C@H](CC(=O)O)NC(=O)CNC1=O [Eptifibatide] (HELM PEPTIDE1{[O=C(CCS[*:3])[*:2]].[N=C(N)NCCCC[C@H](N[*:1])C(=O)[*:2]].G.D.W.P.C.[am]}$PEPTIDE1,PEPTIDE1,1:R3-7:R3$$$V2.0)"
property_name = "Complete Media"
measured_number = 0.9929

[[record]]
molecule = "CN(C)C(=O)N[C@H]1CC[C@H](CCN2CCN(c3cccc(Cl)c3Cl)CC2)CC1 [Cariprazine (hydrochloride)]"
property_name = "Complete Media"
measured_number = 1.452

[[record]]
molecule = "O=c1[nH]cnc2c1ncn2[C@H]1CC[C@@H](CO)O1"
property_name = "Complete Media"
measured_number = 0.8636

[[record]]
molecule = "Cc1cn([C@H]2O[C@@H](CO)[C@H](O)[C@H]2F)c(=O)[nH]c1=O"
property_name = "Complete Media"
measured_number = 0.881

[[record]]
molecule = "Nc1c(CC(=O)O)cccc1C(=O)c1ccc(Br)cc1 [Bromfenac (sodium hydrate)]"
property_name = "Complete Media"
measured_number = 1.293


Hey, can you go through the list below and give me Complete Media for every item?
1. Cc1cc(C)nc(NS(=O)(=O)c2ccc(N)cc2)n1
2. C[N+](C)(C)CCOP(=O)(O)OP(=O)([O-])OC[C@H]1O[C@@H](n2ccc(N)nc2=O)[C@H](O)[C@@H]1O

1.052
1.557
